# credit: paper PMC11176775

# tgt: DNA polymerase beta (polβ) (UniProt P06746 1-335)
# measurement notes: BLI; range given jointly for polβ, LIG1 and LIGIIIα; individual value only in figure; BLI (Octet QKe), 20 °C: polβ, APE1, LIGIIIα in 20 mM Hepes pH 7.4, 200 mM NaCl, 0.5% BSA, 0.05% Tween 20; LIG1 in 50 mM Tris-HCl pH 7.5, 100 mM KCl, 1 mM DTT; n

# binder, Kd
data = [
    ("one-nucleotide gap DNA (template C) (dsDNA, 5'-phosphate on S2 at the gap; 3'-OH on S1) DNA 1: CATGGGCGGCATGAACC DNA 2: GAGGCCCATCCTCACC DNA 3: GGTGAGGATGGGCCTCCGGTTCATGCCGCCCATG", "~4.9 nM"),
]
